biological target: CAD (Homo sapiens, UniProt O76075); construct: endogenous in cells; host or cells: HeLa229-Tir1-iCAD-mAID-GFP cells; assay: Assay A: Inhibition of the CAD-dependent DNA-damage response (DDR), γH2AX Western blot; type: cell-based; conditions: HeLa229-Tir1-iCAD-mAID-GFP cells, compound 10 μM pre-incubated 1 hour, auxin 5 μM 4 hours
Sequence (O76075 whole entry): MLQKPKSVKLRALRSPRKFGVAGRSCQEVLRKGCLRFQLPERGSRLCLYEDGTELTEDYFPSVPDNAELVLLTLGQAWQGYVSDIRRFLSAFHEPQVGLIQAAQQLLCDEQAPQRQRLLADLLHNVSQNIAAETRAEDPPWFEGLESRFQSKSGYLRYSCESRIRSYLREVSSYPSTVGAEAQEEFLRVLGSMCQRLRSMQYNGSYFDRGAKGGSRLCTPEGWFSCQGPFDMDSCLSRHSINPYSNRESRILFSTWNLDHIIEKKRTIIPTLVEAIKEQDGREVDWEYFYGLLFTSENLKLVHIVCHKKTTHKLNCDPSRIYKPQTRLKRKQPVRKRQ
value_kind: Inhibition of auxin-dependent DDR (γH2AX)

compound | reported_measurement
O=C1NC(=S)NC(=O)C1=Cc1c2ccccc2cc2ccccc12 [CBN65] | blocked the DDR
Clc1ncnc2c1C(c1ccc(Br)cc1)c1c(Cl)ncnc1O2 [CD9] | blocked the DDR
Cc1ccc(Sc2ccc([N+](=O)[O-])c3nonc23)cc1 [MB26] | blocked the DDR
